Numbers sourced from PubChem BioAssay.

Assay: endothelial E-selectin expression blockers – imaging, HUVEC, immunofluorescence, MLSMR starter and 10KST1 sets, primary screen (AID 487);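 also: signal is fraction of cell area covered by stained E-selectin grains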
Details: HUVEC TNFalpha-induced E-selectin immunofluorescence imaging, at 2 µM; stronger effect = higher value
Measurement type: inhibition (%)
Use % as the unit, but write only the number.

[in] Specify measured inhibition for Cc1cc(C)n(C(=O)C23CC4CC(CC(C4)C2)C3)n1 .
[out] -12

[in] Please give measured inhibition of the following entry: CS(=O)(=O)NCc1nnc(SCC(=O)NC2CCCCC2)n1-c1ccc(F)cc1
[out] -5.8

[in] Assign inhibition to the following record: CCOC(=O)Cc1csc(NC(=O)CSc2nnc(C3CC3)n2C)n1
[out] 18.1

[in] Recall and state the measured inhibition for Cc1ccc(N(C(=O)C2CCC(=O)N2)C2(C(=O)NC3CCCCC3)CCCCC2)cc1 (stereo not given) .
[out] -16.1

[in] Recall and state the measured inhibition for O=C(O)Cc1ccccc1C(=O)O .
[out] -66.3

[in] Return value of inhibition for input CCOC(=O)N1CCC2(CC1)CC(=O)c1c(ccc3oc(C(=O)O)c(C)c13)O2 , no commentary.
[out] -83.8

[in] Consider the compound CCOc1ccc2nc(N3CCC(C(=O)N4CCN(C5CCCCC5)CC4)CC3)sc2c1 . State its measured inhibition.
[out] -54

[in] Provide inhibition value for the following compound: O=C(NC1CCCCC1NC(=O)c1ccco1)c1ccco1 (stereo not given)
[out] 65.3

[in] Answer with the recorded inhibition of CCC(C(=O)NC1CCCC1)N(Cc1ccco1)C(=O)Cn1nnc(-c2ccc(C)cc2)n1 (stereo not given) only.
[out] -150

[in] Please look at this compound and report its inhibition: CCCCn1c(CN2CCN(c3ccc(F)cc3)CC2)nc2c1c(=O)n(C)c(=O)n2C
[out] -6.8
